These data points were gathered from ChEMBL document CHEMBL1129527.

assay: Therapeutic index is the ratio between IC50/EC50 of HIV-I H112-2 strain in MT2 cell line; type: cell-based; settings: human, MT2 cells infected with HIV-1 H112-2 strain; read-out: TI
Documented selectivity ratio across a set of compounds
RECORDED ENDPOINT: selectivity ratio

SMILES REPRESENTATION	QUANTITATIVE READOUT
Cc1cn([C@H]2C[C@H](N=[N+]=[N-])[C@@H](CO)O2)c(=O)[nH]c1=O	3240
Nc1ccn([C@H]2CC[C@@H](CO)O2)c(=O)n1	166

* * *

test system: MT2; test: Anti-HIV activity against HIV-I IIIB strain in MT2 cell line; format: functional, cell-based; conditions: Homo sapiens
pEC50: −log10 of the molar value.

MOLECULE	pEC50
Nc1ccn([C@H]2CC[C@@H](CO)O2)c(=O)n1	6.05
Cc1cn([C@H]2C[C@H](N=[N+]=[N-])[C@@H](CO)O2)c(=O)[nH]c1=O	7.54
CCCc1cc(=O)oc2c3c(c4c(c12)OC(C)(C)C=C4)O[C@@H](C)C(C)[C@@H]3O (mixture of isomers)	6.97
CCCc1cc(=O)oc2c3c(c4c(c12)OC(C)(C)C=C4)O[C@H](C)[C@@H](C)[C@@H]3O [CALANOLIDE A]	7.28

* * *

assay: Therapeutic index is the ratio between IC50/EC50 of HIV-I IIIB strain in MT2 cell line; format: cell-based; conditions: human, MT2 cells infected with HIV-1 IIIB strain; read-out: TI
Documented selectivity ratio across a set of compounds

SMILES REPRESENTATION	selectivity ratio
Cc1cn([C@H]2C[C@H](N=[N+]=[N-])[C@@H](CO)O2)c(=O)[nH]c1=O	1780
Nc1ccn([C@H]2CC[C@@H](CO)O2)c(=O)n1	93

* * *

test: Therapeutic index is the ratio between IC50/EC50 of HIV-I A17 strain in MT2 cell line; assay type: cell-based; conditions: human, MT2 cells infected with HIV-1 A17 strain; read-out: TI
Documented selectivity ratio across a set of compounds
RECORDED ENDPOINT: selectivity ratio

SMILES REPRESENTATION	RESULT
Nc1ccn([C@H]2CC[C@@H](CO)O2)c(=O)n1	408
Cc1cn([C@H]2C[C@H](N=[N+]=[N-])[C@@H](CO)O2)c(=O)[nH]c1=O	5960

* * *

experiment: Therapeutic index is the ratio between IC50/EC50 of HIV-I G910-6 strain in MT2 cell line; assay type: cell-based; details: human, MT2 cells infected with HIV-1 G910-6 strain; read-out: TI

SMILES REPRESENTATION	selectivity ratio
Nc1ccn([C@H]2CC[C@@H](CO)O2)c(=O)n1	213
